The measurements presented in this section are drawn from ChEMBL document CHEMBL1124479.

system: Cavia porcellus; experiment: Inhibition of Leukotriene D4 induced bronchoconstriction in guinea pig by 50 mg/kg i.d.; conditions: at 50 mg/kg
Metric name: inhibition (%)

a = CCS(=O)(=O)Nc1cccc(OCc2nc3ccccc3s2)c1
b = O=S(=O)(Nc1ccc2ccc(OCc3ccc4ccccc4n3)cc2c1)C(F)(F)F
Form field 'greater inhibition' accepts a or b ; which applies? Pick one; state its label.
b

----------
system: Cavia porcellus; experiment: Inhibition of Leukotriene D4 induced bronchoconstriction when compound was administered intraduodenally at a dose of 25 mg/kg in guinea pig
Metric name: inhibition (%)

# count of solved cases: 4
{"Mol smiles": "CCS(=O)(=O)Nc1cccc(OCc2cc3ccccc3s2)c1", "Target under test": "Cavia porcellus", "inhibition, %": 13}
{"Mol smiles": "O=S(=O)(Nc1ccc(OCc2ccc3ccccc3n2)cc1)C(F)(F)F", "Target under test": "Cavia porcellus", "inhibition, %": 28}
{"Mol smiles": "CS(=O)(=O)Nc1ccc([N+](=O)[O-])cc1OCc1ccc2ccccc2n1", "Target under test": "Cavia porcellus", "inhibition, %": 28}
{"Mol smiles": "Cc1ccc(S(=O)(=O)Nc2cccc(SCc3ccc4ccccc4n3)c2)cc1", "Target under test": "Cavia porcellus", "inhibition, %": 10}

A = O=S(=O)(NCCc1cccc(OCc2ccc3ccccc3n2)c1)C(F)(F)F
B = COC(=O)CS(=O)(=O)Nc1cccc(OCc2ccc3ccccc3n2)c1
Of A and B , which shows the smaller inhibition value? Pick one; state its label.
A
(A: 14%, B: 69%)

----------
system: Cavia porcellus; assay: Inhibition of Leukotriene D4 induced bronchoconstriction when compound was administered intraduodenally at a dose of 25 mg/kg in guinea pig
Metric name: inhibition (%)

{"Mol smiles": "CN(C)S(=O)(=O)Nc1cccc(OCc2ccc3ccccc3n2)c1", "Unit spec": "%", "inhibition": 11}

1 = O=S(=O)(Nc1cccc(OCc2nc3ccccc3s2)c1)C(F)(F)F
2 = O=S(=O)(Nc1cccc(OCc2ccc3ccccc3n2)c1)c1ccc(C(F)(F)F)cc1
Form field 'greater inhibition' accepts 1 or 2 ; which applies? Pick one; state its label.
1
(1: 94%, 2: 46%)

A = O=S(=O)(Nc1cccc(SCc2ccc3ccccc3n2)c1)C(F)(F)F
B = O=S(=O)(Nc1ccccc1OCc1ccc2ccccc2n1)C(F)(F)F
C = O=C(O)CS(=O)(=O)Nc1cccc(OCc2ccc3ccccc3n2)c1
Falling order of inhibition, please. List the labels in the requested order.
A, C, B

A = O=S(=O)(Nc1cccc(Oc2ccccn2)c1)C(F)(F)F
B = O=C(O)c1ccc(S(=O)(=O)Nc2cccc(OCc3ccc4ccccc4n3)c2)cc1
C = O=S(=O)(Nc1ccccc1SCc1ccc2ccccc2n1)C(F)(F)F
D = O=S(=O)(Nc1cccc(Oc2cccc3cccnc23)c1)C(F)(F)F
E = O=S(=O)(CC(F)(F)F)Nc1cccc(OCc2ccc3ccccc3n2)c1
rank_up(items): orders items by reported inhibition in ascending numerical order. List the labels in the requested order.
C, B, A, D, E

A = O=C1CS(=O)(=O)Nc2cc(OCc3ccc4ccccc4n3)ccc21
B = O=S(=O)(Nc1cccc(OCc2csc3ccccc23)c1)C(F)(F)F
Form field 'greater inhibition' accepts A or B ; which applies? Pick one; state its label.
A

----------
assay: Binding studies using tritium-labelled leukotriene D4; parameters: species or system Cavia porcellus
Metric name: pKd
# log scale: pKd equals minus log10 of the concentration in mol/L

// returns reported pKd for input O=S(=O)(Nc1cccc(OCc2ccc3ccccc3n2)c1)C(F)(F)F
7.46

----------
system: Cavia porcellus; experiment: Inhibition of Leukotriene D4 induced bronchoconstriction in guinea pig by 50 mg/kg i.d.; settings: at 50 mg/kg
Metric name: inhibition (%)

{"Mol smiles": "CCS(=O)(=O)Nc1cccc(OCc2ccc3ccccc3n2)c1", "Metric name": "inhibition", "Numeric value": 83}
{"Mol smiles": "CCS(=O)(=O)Nc1ccc2ccc(OCc3nc4ccccc4s3)cc2c1", "Metric name": "inhibition", "Numeric value": 27}
{"Mol smiles": "CCS(=O)(=O)Nc1cccc(OCc2nc3ccccc3n2C)c1", "Metric name": "inhibition", "Numeric value": 75}

1 = CCS(=O)(=O)N(C)c1ccc2ccc(OCc3ccc4ccccc4n3)cc2c1
2 = CS(=O)(=O)Nc1ccc2ccc(OCc3ccc4ccccc4n3)cc2c1
3 = CCCS(=O)(=O)N(c1cccc(OCc2ccc3ccccc3n2)c1)S(=O)(=O)CCC
4 = CCS(=O)(=O)Nc1cccc2ccc(OCc3ccc4ccccc4n3)cc12
5 = CCCCS(=O)(=O)Nc1cccc(OCc2nc3ccccc3n2C)c1
rank_up(items): orders items by reported inhibition in ascending numerical order. List the labels in the requested order.
4, 5, 3, 1, 2

----------
test system: Cavia porcellus; experiment: Inhibition of Leukotriene D4 induced bronchoconstriction in guinea pig by 50 mg/kg i.d.; conditions: at 50 mg/kg
Metric name: inhibition (%)

A = CCS(=O)(=O)Nc1cccc(OCc2ccc3ccccc3c2)c1
B = CCS(=O)(=O)Nc1ccc2ccc(OCc3ccc4ccccc4n3)cc2c1
Of A and B , which shows the smaller inhibition value? Pick one; state its label.
A
(A: 42%, B: 91%)

1 = CCCS(=O)(=O)Nc1cccc(OCc2nc3ccccc3n2C)c1
2 = CCCCS(=O)(=O)Nc1cccc(OCc2nc3ccccc3s2)c1
Form field 'greater inhibition' accepts 1 or 2 ; which applies? Pick one; state its label.
2
(2: 56%, 1: 37%)

P = CCCCS(=O)(=O)Nc1cccc(OCc2ccc3ccccc3n2)c1
Q = CCCS(=O)(=O)Nc1cccc(OCc2nc3ccccc3s2)c1
Of P and Q , which shows the smaller inhibition value? Pick one; state its label.
P

P = CCS(=O)(=O)Nc1ccc2ccc(OCc3ccc4ccccc4c3)cc2c1
Q = CCCCS(=O)(=O)Nc1ccc2ccc(OCc3ccc4ccccc4n3)cc2c1
Of P and Q , which shows the smaller inhibition value? Pick one; state its label.
P
(P: 28%, Q: 51%)

A = CS(=O)(=O)Nc1cccc(OCc2nc3ccccc3s2)c1
B = CCCS(=O)(=O)N(c1cccc(OCc2nc3ccccc3s2)c1)S(=O)(=O)CCC
Of A and B , which shows the smaller inhibition value? Pick one; state its label.
B
(B: 38%, A: 60%)
